assay: Antiproliferative activity against human NHLF cells assessed as inhibition of lysophosphatidic acid-induced proliferation by BrdU incorporation assay; format: functional, cell-based
Sorting guide: entries reporting IC50 beneath 30 nM go in the t pile, the rest go in the f pile.

Look over these answered cases.
{"SMILES_STRUCTURE": "COc1cc2ccccc2cc1C(=O)/C(=N\\C1CCCC1)n1ncc(C#N)c1N", "ASSIGNED_LABEL": "f"}
{"SMILES_STRUCTURE": "COc1ccc(C(=O)/C(=N\\C(C)C)n2ncc(C#N)c2N)c(OC)c1", "ASSIGNED_LABEL": "t"}
{"SMILES_STRUCTURE": "COc1ccc(C(=O)/C(=N\\C2CCCC2)n2ncc(C#N)c2N)c(F)c1", "ASSIGNED_LABEL": "f"}
{"SMILES_STRUCTURE": "COc1ccc(C(=O)/C(=N\\C2CCCCC2)n2ncc(C#N)c2N)c(OC)c1", "ASSIGNED_LABEL": "f"}
{"SMILES_STRUCTURE": "CCc1ccc(C(=O)/C(=N\\C2CCCC2)n2ncc(C#N)c2N)cc1", "ASSIGNED_LABEL": "f"}

Consider the record given below.
Is it true that IC50 reported for COc1ccc(C(=O)/C(=N\C2CCCC2)n2ncc(C#N)c2N)c(OC)c1 is less than 30 nM?
t

###

target: Lysophosphatidic acid receptor 1 (Homo sapiens); assay: Antagonist activity at human LPA1R expressed in Chem-1 cells assessed as inhibition of lysophosphatidic acid-induced calcium mobilization at 30 uM by FLIPR assay; format: functional, cell-based
Recorded inhibition by entry
Remember to put the unit after the number in your answer.

Reference set, count: 3
{"SMILES_STRUCTURE": "COc1ccc(C(=O)/C(=N\\C(C)C)n2ncc(C#N)c2N)c(OC)c1", "inhibition": "88%"}
{"SMILES_STRUCTURE": "COc1cc(OCc2ccccc2)ccc1C(=O)/C(=N\\C1CCCC1)n1ncc(C#N)c1N", "inhibition": "48%"}
{"SMILES_STRUCTURE": "COc1ccc(C(=O)/C(=N\\C2CCCC2)n2ncc(C#N)c2N)c(OC)c1", "inhibition": "98%"}

Input COc1cc(F)ccc1C(=O)/C(=N\C1CCCC1)n1ncc(C#N)c1N , output reported inhibition.
49%

Input COc1cc(OC)c(C(=O)/C(=N\C2CCCC2)n2ncc(C#N)c2N)cc1OC , output reported inhibition.
79%

Input CCc1ccc(C(=O)/C(=N\C2CCCC2)n2ncc(C#N)c2N)cc1 , output reported inhibition.
100%

Input COc1ccc(C(=O)/C(=N\C2CCCC2)n2ncc(C#N)c2N)c(F)c1 , output reported inhibition.
100%

###

Target: Lysophosphatidic acid receptor 3 (Homo sapiens) (UniProt Q9UBY5)
Sequence (whole entry): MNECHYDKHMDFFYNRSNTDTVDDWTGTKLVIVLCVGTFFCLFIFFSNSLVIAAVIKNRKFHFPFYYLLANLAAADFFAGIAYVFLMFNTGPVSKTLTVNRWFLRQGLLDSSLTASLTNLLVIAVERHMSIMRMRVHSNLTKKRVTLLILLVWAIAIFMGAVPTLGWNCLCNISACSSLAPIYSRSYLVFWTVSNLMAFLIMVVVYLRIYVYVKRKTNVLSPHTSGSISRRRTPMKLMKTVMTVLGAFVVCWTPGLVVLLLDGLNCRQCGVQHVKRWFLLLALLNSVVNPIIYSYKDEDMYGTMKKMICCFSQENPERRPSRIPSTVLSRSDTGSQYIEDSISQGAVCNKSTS
Assay: Antagonist activity at human LPA3R expressed in Chem-1 cells assessed as inhibition of lysophosphatidic acid-induced calcium mobilization at 30 uM by FLIPR assay
Assay type: functional, cell-based
Recorded inhibition by entry
Remember to put the unit after the number in your answer.

{"SMILES_STRUCTURE": "COc1cc2c(cc1C(=O)/C(=N\\C1CCCC1)n1ncc(C#N)c1N)CCC2", "inhibition": "19%"}
{"SMILES_STRUCTURE": "COc1ccc(C(=O)/C(=N\\C2CCCC2)n2ncc(C#N)c2N)c(F)c1", "inhibition": "4%"}

Input COc1cc2ccccc2cc1C(=O)/C(=N\C1CCCC1)n1ncc(C#N)c1N , output reported inhibition.
2%

Input N#Cc1cnn(/C(=N/C2CCCC2)C(=O)c2ccc(Br)cc2)c1N , output reported inhibition.
1%

Input COc1ccc(C(=O)/C(=N\C2CCCCC2)n2ncc(C#N)c2N)c(OC)c1 , output reported inhibition.
30%

Input COc1cc(OCc2ccccc2)ccc1C(=O)/C(=N\C1CCCC1)n1ncc(C#N)c1N , output reported inhibition.
23%

Input COc1cc(F)ccc1C(=O)/C(=N\C1CCCC1)n1ncc(C#N)c1N , output reported inhibition.
3%

###

molecular target: Lysophosphatidic acid receptor 1 (Homo sapiens); test: Antagonist activity at human LPA1R expressed in Chem-1 cells assessed as inhibition of lysophosphatidic acid-induced calcium mobilization at 30 uM by FLIPR assay; assay type: functional, cell-based
Recorded inhibition by entry
Provide only the numeric value, understood in %.

{"SMILES_STRUCTURE": "COc1cc2c(cc1C(=O)/C(=N\\C1CCCC1)n1ncc(C#N)c1N)CCC2", "inhibition / %": 78}
{"SMILES_STRUCTURE": "COc1cc2ccccc2cc1C(=O)/C(=N\\C1CCCC1)n1ncc(C#N)c1N", "inhibition / %": 78}
{"SMILES_STRUCTURE": "COc1ccc(C(=O)/C(=N\\C2CCCCC2)n2ncc(C#N)c2N)c(OC)c1", "inhibition / %": 85}
{"SMILES_STRUCTURE": "N#Cc1cnn(/C(=N/C2CCCC2)C(=O)c2ccc(Br)cc2)c1N", "inhibition / %": 96}

Proceed to the following item.
Input COc1cc(C(=O)/C(=N\C2CCCC2)n2ncc(C#N)c2N)cc(OC)c1OC , output reported inhibition.
13

###

Molecular target: Lysophosphatidic acid receptor 3 (Homo sapiens) (UniProt Q9UBY5)
Sequence (whole entry): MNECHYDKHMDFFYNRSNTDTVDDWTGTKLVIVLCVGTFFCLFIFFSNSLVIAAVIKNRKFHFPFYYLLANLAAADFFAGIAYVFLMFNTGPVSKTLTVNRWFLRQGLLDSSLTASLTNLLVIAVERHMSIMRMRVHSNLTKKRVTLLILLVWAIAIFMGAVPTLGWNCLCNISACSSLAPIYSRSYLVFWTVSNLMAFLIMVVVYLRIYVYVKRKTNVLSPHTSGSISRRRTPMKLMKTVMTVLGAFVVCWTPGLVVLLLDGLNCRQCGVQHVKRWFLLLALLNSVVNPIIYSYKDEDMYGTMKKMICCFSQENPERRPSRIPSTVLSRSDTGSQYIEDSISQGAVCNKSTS
Assay: Antagonist activity at human LPA3R expressed in Chem-1 cells assessed as inhibition of lysophosphatidic acid-induced calcium mobilization at 30 uM by FLIPR assay
Assay type: functional, cell-based
Recorded inhibition by entry
Provide only the numeric value, understood in %.

Reference set, count: 4
{"SMILES_STRUCTURE": "CCc1ccc(C(=O)/C(=N\\C2CCCC2)n2ncc(C#N)c2N)cc1", "VALUE_TYPE": "inhibition", "READING": 14}
{"SMILES_STRUCTURE": "COc1cc(C(=O)/C(=N\\C2CCCC2)n2ncc(C#N)c2N)cc(OC)c1OC", "VALUE_TYPE": "inhibition", "READING": 14}
{"SMILES_STRUCTURE": "COc1ccc(C(=O)/C(=N\\C2CCCC2)n2ncc(C#N)c2N)c(OC)c1", "VALUE_TYPE": "inhibition", "READING": 23}
{"SMILES_STRUCTURE": "COc1cc(OC)c(C(=O)/C(=N\\C2CCCC2)n2ncc(C#N)c2N)cc1OC", "VALUE_TYPE": "inhibition", "READING": 8}

Proceed to the following item.
Input COc1ccc(C(=O)/C(=N\C(C)C)n2ncc(C#N)c2N)c(OC)c1 , output reported inhibition.
25

Source of measurements: ChEMBL document CHEMBL3351480
